Value source: ChEMBL document CHEMBL5154865

solubility at 5 min values by entry
- ASSAY_PROCEDURE: Solubility of compound in DMSO at pH 10.2 after 5 mins measured by HPLC analysis
- Type: physicochemical

SMILES_STR: CC1(C)CCn2c(=O)n(C[C@H](O)[C@H](O)[C@H](O)CO)c3cccc1c32
DISPLAY_UNIT: µM
solubility at 5 min: 47.6
//
SMILES_STR: CC1(C)CCn2c(=O)c(=O)n(CCCO)c3cccc1c32
DISPLAY_UNIT: µM
solubility at 5 min: 50.2
//
SMILES_STR: CC1(C)CCn2c(=O)c(=O)n(Cc3nn[nH]n3)c3cccc1c32
DISPLAY_UNIT: µM
solubility at 5 min: 51.8
//
SMILES_STR: CO[C@@H]1O[C@H](Cn2c(=O)n3c4c(cccc42)C(C)(C)CC3)[C@@H](O)[C@H]1O
DISPLAY_UNIT: µM
solubility at 5 min: 48.6
//
SMILES_STR: Cc1cc2c3c(c1C)C(C)(C)CCn3c(=O)c(=O)n2C[C@H](O)[C@H](O)[C@H](O)CO
DISPLAY_UNIT: µM
solubility at 5 min: 49.3

----------
- ASSAY_PROCEDURE: Solubility of compound in DMSO at pH 7.4 after 5 mins measured by HPLC analysis
- Type: physicochemical
Parameter threshold = 50 µM. Response is condition met when solubility at 5 min meets or exceeds it, else condition not met.

SMILES_STR: CC1(C)CCn2c(=O)c(=O)n(Cc3nn[nH]n3)c3cccc1c32
ASSIGNED_LABEL: condition met

SMILES_STR: CC1(C)CCn2c(=O)n(C[C@H](O)[C@H](O)[C@H](O)CO)c3cccc1c32
ASSIGNED_LABEL: condition not met

----------
solubility at 5 min values by entry
- ASSAY_PROCEDURE: Solubility of compound in DMSO at pH 2.2 after 5 mins measured by HPLC analysis
- Assay type: physicochemical
OBSERVED_PROPERTY: solubility at 5 min (µM)

SMILES_STR: CC1(C)CCn2c(=O)c(=O)n(Cc3nn[nH]n3)c3cccc1c32
OBSERVED_PROPERTY: solubility at 5 min
DISPLAY_UNIT: µM
OBSERVED_MEASUREMENT: 51.2

SMILES_STR: CO[C@@H]1O[C@H](Cn2c(=O)n3c4c(cccc42)C(C)(C)CC3)[C@@H](O)[C@H]1O
OBSERVED_PROPERTY: solubility at 5 min
DISPLAY_UNIT: µM
OBSERVED_MEASUREMENT: 48.4

SMILES_STR: CC1(C)CCn2c(=O)n(C[C@H](O)[C@H](O)[C@H](O)CO)c3cccc1c32
OBSERVED_PROPERTY: solubility at 5 min
DISPLAY_UNIT: µM
OBSERVED_MEASUREMENT: 48

SMILES_STR: Cc1cc2c3c(c1C)C(C)(C)CCn3c(=O)c(=O)n2C[C@H](O)[C@H](O)[C@H](O)CO
OBSERVED_PROPERTY: solubility at 5 min
DISPLAY_UNIT: µM
OBSERVED_MEASUREMENT: 50.4

SMILES_STR: CC1(C)CCn2c(=O)c(=O)n(CCCO)c3cccc1c32
OBSERVED_PROPERTY: solubility at 5 min
DISPLAY_UNIT: µM
OBSERVED_MEASUREMENT: 50.8
